Item-by-item account of pEC50
- measured.target: UniProt:P41143
- Sequence (P41143 whole entry): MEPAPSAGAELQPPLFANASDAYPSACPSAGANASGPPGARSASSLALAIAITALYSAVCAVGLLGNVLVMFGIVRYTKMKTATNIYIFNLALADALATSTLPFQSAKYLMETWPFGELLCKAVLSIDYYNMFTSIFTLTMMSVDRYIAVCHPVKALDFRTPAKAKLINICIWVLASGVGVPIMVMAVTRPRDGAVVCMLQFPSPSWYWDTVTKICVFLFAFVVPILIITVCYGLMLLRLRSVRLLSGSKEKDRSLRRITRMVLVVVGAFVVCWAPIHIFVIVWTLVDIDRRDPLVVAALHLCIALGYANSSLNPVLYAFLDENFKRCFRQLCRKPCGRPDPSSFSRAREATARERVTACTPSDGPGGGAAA
- assay.summary: DOR agonist cAMP assay (HitHunter cAMP, forskolin-stimulated)
pEC50: −log10 of the molar value. Square brackets hold non-standard residues; d marks the D form. Peptide text beside a SMILES is read from it. Dmt = Cc1cc(O)cc(C)c1C[C@H](N)C(=O)O; hPhe = N[C@@H](CCc1ccccc1)C(=O)O; Sar = CNCC(=O)O

compound | measured.target | pEC50
Cc1cc(O)cc(C)c1C[C@H](N)C(=O)N[C@H](C)C(=O)N[C@@H](CCc1ccccc1)C(=O)N(C)CC(N)=O [compound 46] (H-[Dmt][dA][hPhe][Sar]-NH2) | UniProt:P41143 | > 9.00
Cc1cc(O)cc(C)c1C[C@H](N)C(=O)N[C@H](CC(=O)O)C(=O)NCC(=O)N[C@H](CC(=O)N(C)[C@@H](Cc1ccccc1)C(=O)O)Cc1ccccc1 [compound 177] | UniProt:P41143 | > 9.00
CCCCCN(CC(N)=O)C(=O)C[C@H](Cc1ccccc1)NC(=O)CNC(=O)[C@@H](C)NC(=O)[C@@H](N)Cc1c(C)cc(O)cc1C [compound 124] | UniProt:P41143 | > 9.00
